# Tested on: rodent lifetime carcinogenesis bioassay, tumor incidence TD50
# ASSAY_NOTES: carcinogenic potency in animals, long-term in vivo studies, CPDB compilation (AID 1745844)
# CONDITION_NOTES: rat; strain MRC-Wistar; females; in drinking water; site: any site (literature study); lesion: one or several types; types not named; dosed 39 weeks; study length 85 weeks
Parameter: TD50. Scope: all listed entries.
MEASURED_METRIC: TD50 (mg/kg/day)

INSERT INTO assay_data (chem_smiles, measured_metric, value_measured) VALUES
  ('CCCCN(N=O)C(N)=O', 'TD50', 1.02),
  ('NC(=O)N(CCO)N=O', 'TD50', 0.32);
